In this section we review reported IC50 (read off the curve) values for a set of binders.
test_target: T1, biotin-labelled human IgE-Fc (human, UniProt P01854 104-427, biotin-labelled)
T1 construct: also called recombinant human IgE-Fc protein; Fc region (CH2-4) protein of human IgE
T1 sequence (P01854 other isoform, or with tags, fused parts or gaps limits assumed): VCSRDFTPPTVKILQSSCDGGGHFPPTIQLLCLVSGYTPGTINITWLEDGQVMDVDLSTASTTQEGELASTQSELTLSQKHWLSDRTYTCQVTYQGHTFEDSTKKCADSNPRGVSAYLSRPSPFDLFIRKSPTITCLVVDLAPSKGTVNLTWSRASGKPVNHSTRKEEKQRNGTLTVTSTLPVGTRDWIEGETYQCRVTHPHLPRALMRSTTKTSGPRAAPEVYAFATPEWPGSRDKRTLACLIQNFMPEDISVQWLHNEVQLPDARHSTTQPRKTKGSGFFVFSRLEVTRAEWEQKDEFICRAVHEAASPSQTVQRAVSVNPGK
test_name: blocking ELISA, inhibition ratio: FcεRIα-Fc coated, biotin-labelled human IgE-Fc (100 ng/mL) premixed with the antibody, streptavidin-HRP; blocked ligand FcεRIα-Fc

Sample answers from the record:
binder | IC50 (read off the curve)
mouse-derived monoclonal antibody SE2 (antibody, V domains shown, the cloning primer was homologous to the mouse IgG1 heavy chain constant region; also called SE2 mouse hybridoma antibody; mouse-derived parent antibody of SE2) VH: DVQLLESGPGLVKPSQSLSLTCTVTGYSITSDYAWNWIRQFPGNKLEWMGYISYSGSTRYNPSLKSRISISRDTSKNQFFLQLNSVTSEDTATYFCVYGSSQRFFDYWGQGTTLTVSS VL: DILMTQSHKFMSTSIGDRVSITCKASQDVSIDVAWYHQKPGQSPKLLIYSASFRYAGVPDRFTGSGSGTDFTLTISSVQAEDLAVYYCQQHYSLFTFGSGTKLEIK | ~0.2 µg/mL
mouse-derived monoclonal antibody SE5 (antibody, V domains shown, the cloning primer was homologous to the mouse IgG1 heavy chain constant region; also called SE5 mouse hybridoma antibody; mouse-derived parent antibody of SE5) VH: DVQLLESGPGLVKPSQSLSLTCTVTGYSITSDYAWNWIRQFPGNKLEWLGYINYSGTTRYNPSLKSRISISRDTSKNQFFLQLNSVTSEDTATYFCVYGSSQRFFDYWGQGTTLTVSS VL: DIVMTQSHKFMSTSVGDRVSITCKASQDVSIDVAWYQQKPGQSPKLLIYSASWRYAGVPDRFTGSRSGTDYTLTISSVQAEDLAVYYCQQHYNLFTFGSGTKLEIQ | ~0.08 µg/mL
chimeric antibody SE2 (mouse SE2 variable regions, human IgG1/kappa constant regions) (antibody, V domains shown, also called chimeric recombinant monoclonal antibody) VH: DVQLLESGPGLVKPSQSLSLTCTVTGYSITSDYAWNWIRQFPGNKLEWMGYISYSGSTRYNPSLKSRISISRDTSKNQFFLQLNSVTSEDTATYFCVYGSSQRFFDYWGQGTTLTVSS VL: DILMTQSHKFMSTSIGDRVSITCKASQDVSIDVAWYHQKPGQSPKLLIYSASFRYAGVPDRFTGSGSGTDFTLTISSVQAEDLAVYYCQQHYSLFTFGSGTKLEIKR | ~0.2 µg/mL

Read the next record carefully.
// chimeric antibody SE5 (mouse SE5 variable regions, human IgG1/kappa constant regions) (antibody, V domains shown, also called chimeric recombinant monoclonal antibody) VH: DVQLLESGPGLVKPSQSLSLTCTVTGYSITSDYAWNWIRQFPGNKLEWLGYINYSGTTRYNPSLKSRISISRDTSKNQFFLQLNSVTSEDTATYFCVYGSSQRFFDYWGQGTTLTVSS VL: DIVMTQSHKFMSTSVGDRVSITCKASQDVSIDVAWYQQKPGQSPKLLIYSASWRYAGVPDRFTGSRSGTDYTLTISSVQAEDLAVYYCQQHYNLFTFGSGTKLEIQR : IC50 (read off the curve) value = ~0.08 µg/mL
